Form field: T/C (one value per entry).
# Test system: L1210 leukemia ip in BDF1 mice, survival T/C
# Assay Method Text: NCI In Vivo Anticancer Drug Screen. Data for tumor model L1210 Leukemia (intraperitoneal) in B6D2F1 (BDF1) mice
# Condition Description: endpoint: mean survival time; dose: 100.0 mg/kg/injection; schedule: Q01DX001 (ip); vehicle: saline with Tween-80; higher = longer survival
Toxic doses and inconclusive results are not listed.

Compound	T/C
CCC(CCc1ccc(OC)c(OC)c1)C(=O)O (stereo not drawn)	93 % of control

Q: // lookup T/C for Oc1cc2ccc3c(c2cc1O)CCc1cn[nH]c1-3
Ans: 92 % of control

Q: // lookup T/C for Brc1ccc2[nH]c3c(c2c1)CSCC3
Ans: 95 % of control

----------
# Test system: L1210 leukemia ip in BDF1 mice, survival T/C
# Assay Method Text: NCI In Vivo Anticancer Drug Screen. Data for tumor model L1210 Leukemia (intraperitoneal) in B6D2F1 (BDF1) mice
# Condition Description: endpoint: mean survival time; dose: 25.0 mg/kg/injection; schedule: Q04DX003 (ip); vehicle: Klucel (hydroxypropylcellulose) (HPC); higher = longer survival
Inconclusive results and toxic doses are left out.
Assay Endpoint: T/C

Brc1ccc(C2=CSC3=NCCN23)cc1 96 % of control
CCCCCC[Se][Se]CCCCCC 90 % of control
Cc1cc(C)nc(NC(N)=NCCc2ccccc2)n1 100 % of control
C[N+](C)(C)CC1(COC(=O)C(O)(c2ccccc2)c2ccccc2)CCC1 86 % of control

Q: Item O=Cc1c(Cl)n(-c2ccccc2)c2c(C=O)cccc12 with L1210 leukemia ip in BDF1 mice, survival T/C - T/C?
Ans: 97 % of control

----------
# Test system: L1210 leukemia ip in BDF1 mice, survival T/C
# Assay Method Text: NCI In Vivo Anticancer Drug Screen. Data for tumor model L1210 Leukemia (intraperitoneal) in B6D2F1 (BDF1) mice
# Condition Description: endpoint: mean survival time; dose: 200.0 mg/kg/injection; schedule: Q04DX003 (ip); vehicle: Klucel (hydroxypropylcellulose) (HPC); higher = longer survival
Toxic doses and inconclusive results are not listed.
Assay Endpoint: T/C

These recorded examples may help you get a feel for the data.
Compound	T/C
CCCCC(CC)CCC(O)CC(C)C (configuration not stated)	97 % of control
CC(=O)OCCN1C(=O)CN=C(c2ccccn2)c2cc(Cl)ccc21	101 % of control
O=NC1C(Cl)C2CC1C1C=CCC12 (configuration not stated)	92 % of control
COC(=O)Nc1cccc2c1-c1ccccc1C2=O	100 % of control
Fc1cc(F)c(F)c(Oc2c(F)c(F)c(F)c(F)c2F)c1F	95 % of control
CC(=O)Nc1ccc(C)c(NC(C)=O)c1	96 % of control
O=C(Nc1ccccc1C(=O)NC1CCCC1)NC1CCCC1	94 % of control
Nc1nc2nnc(-c3ccccc3)c(-c3ccccc3)n2n1	101 % of control
Cc1ccc(C(=O)c2ccc3c4c(cccc24)CC3)cc1	88 % of control
CCCCCCCC(O)CCC (configuration not stated)	97 % of control

Q: // lookup T/C for CN(C)c1ccc(CC2Cc3ccccc3C2=O)cc1 (configuration not stated)
Ans: 103 % of control

Q: // lookup T/C for COc1cc(/C=N/NC(=O)c2ccccc2)ccc1O
Ans: 95 % of control

Q: // lookup T/C for Clc1cc(C(Cl)(Cl)Cl)c(Cl)cc1C(Cl)(Cl)Cl
Ans: 94 % of control

Q: // lookup T/C for Cc1cccc(C2CCCC2c2ccccc2)c1 (configuration not stated)
Ans: 94 % of control

Q: // lookup T/C for Nc1ccccc1C(=O)c1ccccc1
Ans: 98 % of control

Q: // lookup T/C for CC(=O)N(C=C(C#N)C#N)c1ccccc1
Ans: 96 % of control

Q: // lookup T/C for C=CCSCC(=O)c1ccccc1
Ans: 97 % of control

Q: // lookup T/C for N#CCCN(CCC#N)c1ccc(C=O)cc1
Ans: 93 % of control

Q: // lookup T/C for FC1(F)C2Cc3ccccc3C2C1(F)F (configuration not stated)
Ans: 98 % of control

Q: // lookup T/C for O=C(Nc1ccc(Nc2ccncc2)cc1)c1ccc([N+](=O)[O-])cc1
Ans: 98 % of control

Q: // lookup T/C for O=C(Nc1cccc(Cl)c1)OCC(Cl)(Cl)Cl
Ans: 104 % of control

Q: // lookup T/C for O=[N+]([O-])c1cccc(S(=O)(=O)NNc2cccc(Cl)c2)c1
Ans: 94 % of control

Where do these numbers come from? They come from PubChem BioAssay AID248.
